# target_entity: FGFR3 (SEQ ID NO: 5, amino acids 449-759) (Homo sapiens (Human), UniProt P22607)
# Sequence (P22607 449-759): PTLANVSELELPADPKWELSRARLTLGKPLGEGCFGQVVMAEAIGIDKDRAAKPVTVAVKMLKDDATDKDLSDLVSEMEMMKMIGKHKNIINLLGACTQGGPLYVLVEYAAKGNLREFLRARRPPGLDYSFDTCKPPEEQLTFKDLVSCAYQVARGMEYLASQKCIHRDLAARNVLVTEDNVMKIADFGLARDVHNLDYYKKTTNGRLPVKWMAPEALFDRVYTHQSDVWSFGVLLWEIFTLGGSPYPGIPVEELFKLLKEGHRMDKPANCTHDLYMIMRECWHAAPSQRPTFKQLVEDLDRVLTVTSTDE
# assay_summary: LC/MS FGFR3 kobs assay (covalent protein modification)
# Type: binding
# condition_context: 500 nM FGFR3, 3 μM compound
reported_property: FGFR3 Enz kobs (min⁻¹)

The following molecules have reported results that may help.
* COc1cc(-c2cnn(C3CCN(C(=O)C4CN(C(=O)/C=C/CN5CCCCC5)C4)CC3)c2)cn2ncc(C#N)c12 [Example 145] | 0.01811
* C=CC(=O)N1CC(CN2CC(n3ncc(-c4cc(OC)c5c(C#N)cnn5c4)c3C)C2)C1 [Example 92] | 0.00836

[a] COc1cc(-c2cnn(C3CCN(C(=O)C4CN(C(=O)C#CCO)C4)CC3)c2)cn2ncc(C#N)c12 [Example 179]
[b] C=CC(=O)N1CC(C(=O)N2CC(n3cc(-c4cc(OC)c5c(C#N)cnn5c4)cn3)C2)C1 [Example 78]
Lookup: When a and b are compared, which has the higher number for FGFR3 Enz kobs? Your answer should be the label attached to the chosen record.
Found: a
(a: 0.189 min⁻¹, b: 0.01629 min⁻¹)
